Taken from ChEMBL document CHEMBL3132854.

For each of the molecules below, state its growth, % of control at 10 µM.
- Tested on: SK-MEL-5
- assay_details: Growth inhibition of human SK-MEL-5 cells assessed as cell growth at 10 uM by sulforhodamine B assay relative to control; values are per cent of control
Numeric answer only, unit % assumed.

### Prompt // lookup growth, % of control at 10 µM for "COc1ccc(C(=O)/C=C/c2ccc(/C=C/c3cc(OC)c(OC)c(OC)c3)cc2)cc1"
### Response 62

### Prompt Also "COc1ccc(C(=O)/C=C/c2ccc(/C=C/c3ccc(F)cc3)cc2)cc1" ?
### Response 104

### Prompt Also "COc1ccc(C(=O)/C=C/c2ccc(/C=C/c3ccc(Cl)cc3)cc2)cc1" ?
### Response 106

### Prompt Also "COc1ccc(/C=C/c2ccc(/C=C/C(=O)c3ccc(Cl)cc3)cc2)cc1" ?
### Response 107
